biological target: human PD-1 (human, UniProt Q15116 25-288); experiment: cell-based or functional assay
Sequence (Q15116 25-288 limits assumed): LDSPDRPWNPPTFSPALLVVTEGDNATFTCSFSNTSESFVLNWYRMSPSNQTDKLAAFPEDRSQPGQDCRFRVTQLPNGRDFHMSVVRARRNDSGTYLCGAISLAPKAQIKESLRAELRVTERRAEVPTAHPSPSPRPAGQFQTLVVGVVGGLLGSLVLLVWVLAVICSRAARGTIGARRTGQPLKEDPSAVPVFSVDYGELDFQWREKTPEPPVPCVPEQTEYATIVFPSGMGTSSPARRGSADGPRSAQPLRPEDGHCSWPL
Please provide measured M07e-hPD-1 cell proliferation ratio (%) at 100 nM for the entries that follow.
Numbers only, in %.

Here are 2 binders together with their reported answers.
- Binder: "A-N88D-M26 (Fc fusion, not shown: IgG1 hinge (C220S) + Fc Knob chain as in A-N88D; IgG1 hinge (C220S) + Fc Hole chain as in A-N88D) chain (part 1 of 2): EVQLVESGGGLVQPGGSLRLSCAASGLTFSSYSMSWYRQAPGKGRELVAIISGSGGITHYVDSVKGRFTISRDNAKNTLYLQMRSLRAEDTAVYYCRAVSDWEDYWGQGTQVTVSS chain (part 2 of 2): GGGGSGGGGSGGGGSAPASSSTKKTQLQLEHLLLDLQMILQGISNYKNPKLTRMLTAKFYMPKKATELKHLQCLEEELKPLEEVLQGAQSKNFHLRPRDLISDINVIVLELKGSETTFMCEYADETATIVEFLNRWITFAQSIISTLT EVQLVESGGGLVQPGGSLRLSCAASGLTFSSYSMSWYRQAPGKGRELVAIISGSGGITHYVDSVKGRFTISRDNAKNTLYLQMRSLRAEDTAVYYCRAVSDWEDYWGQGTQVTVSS"
  Measured value: 43.1
- Binder: "A-N88D-M27 (Fc fusion, not shown: IgG1 hinge (C220S) + Fc Knob chain as in A-N88D; IgG1 hinge (C220S) + Fc Hole chain as in A-N88D) chain (part 1 of 2): EVQLVESGGGLVQPGGSLRLSCAASGLTFSSYSMSWYRQAPGKGRELVAIISGSGGITHYVDSVKGRFTISRDNAKNTLYLQMRSLRAEDTAVYYCRAVSDWQDYWGQGTQVTVSS chain (part 2 of 2): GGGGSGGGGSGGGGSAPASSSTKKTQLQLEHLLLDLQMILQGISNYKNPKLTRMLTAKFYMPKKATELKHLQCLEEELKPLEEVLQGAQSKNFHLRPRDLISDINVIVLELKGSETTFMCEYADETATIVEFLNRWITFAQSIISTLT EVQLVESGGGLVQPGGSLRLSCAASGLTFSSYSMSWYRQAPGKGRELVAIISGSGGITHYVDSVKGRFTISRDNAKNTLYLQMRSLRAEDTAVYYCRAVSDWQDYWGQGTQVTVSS"
  Measured value: 39.5

With those in mind, consider the next binder.
Query: For A-N88D-M15 (Fc fusion, not shown: IgG1 hinge (C220S) + Fc Knob chain as in A-N88D; IgG1 hinge (C220S) + Fc Hole chain as in A-N88D) chain (part 1 of 2): EVQLVESGGGLVQPGGSLRLSCAASGLTFSDYSMSWYRQAPGKGRELVAIISGSGGITHYVDSVKGRFTISRDNAKNTLYLQMRSLRAEDTAVYYCRAVSDWEDYWGQGTQVTVSS chain (part 2 of 2): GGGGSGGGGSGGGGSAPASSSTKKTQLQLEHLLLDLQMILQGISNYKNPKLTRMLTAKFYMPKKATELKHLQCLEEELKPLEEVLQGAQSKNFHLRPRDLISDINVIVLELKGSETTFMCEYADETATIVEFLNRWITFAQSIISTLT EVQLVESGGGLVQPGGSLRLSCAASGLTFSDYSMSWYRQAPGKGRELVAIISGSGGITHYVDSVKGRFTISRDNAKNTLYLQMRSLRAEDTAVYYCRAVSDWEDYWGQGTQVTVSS , what is its reported M07e-hPD-1 cell proliferation ratio (%) at 100 nM?
Response: 54.9
